Just for reference, patent US11939314B2 is where these values come from.

target: PDGFRalpha(V561D) (Homo sapiens, UniProt P16234, V561D); construct: recombinant human PDGFRalpha, amino acids 550end containing the V561 D mutation; 6His (N); assay: PDGFRalpha(V561D) assay; conditions: recombinant human PDGFRalpha aa 550-end, 200 μM ATP, 1.4E-06 means 1.4×10^−6, read-out: Inhibition (IC50) of PDGFRα (V561D)
Sequence (P16234 550-1089 V561D): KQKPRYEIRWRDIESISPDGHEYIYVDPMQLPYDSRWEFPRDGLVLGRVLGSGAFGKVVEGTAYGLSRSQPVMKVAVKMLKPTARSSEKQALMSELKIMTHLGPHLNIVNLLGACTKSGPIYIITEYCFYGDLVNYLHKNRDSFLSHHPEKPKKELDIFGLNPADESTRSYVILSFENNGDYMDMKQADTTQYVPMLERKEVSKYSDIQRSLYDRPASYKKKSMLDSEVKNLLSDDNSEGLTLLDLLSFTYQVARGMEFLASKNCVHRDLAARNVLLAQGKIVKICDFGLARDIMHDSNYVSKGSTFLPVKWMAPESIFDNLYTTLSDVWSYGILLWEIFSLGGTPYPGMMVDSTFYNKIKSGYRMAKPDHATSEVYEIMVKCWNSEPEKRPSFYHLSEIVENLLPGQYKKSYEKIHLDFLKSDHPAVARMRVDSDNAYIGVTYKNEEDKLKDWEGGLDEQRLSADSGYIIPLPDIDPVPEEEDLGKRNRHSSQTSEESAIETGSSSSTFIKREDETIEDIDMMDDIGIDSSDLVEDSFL
OUTCOME_MEASURE: pIC50
Keep in mind that pIC50 stands for -log10 of concentration in molar terms.

These recorded examples may help you get a feel for the data.
{"STRUCTURE_STRING": "CN1CCN(c2ccc(-n3cc(-c4cc5cc(F)ccc5[nH]c4=O)nn3)cc2)CC1", "REPORTED_VALUE": 8.30}
{"STRUCTURE_STRING": "O=C(NC1CCNCC1)c1ccc(-n2cc(-c3cc4cccnc4[nH]c3=O)nn2)cc1", "REPORTED_VALUE": 7.66}
{"STRUCTURE_STRING": "CN1CCC(Cc2ccc(-n3cc(-c4cc5cc(F)ccc5[nH]c4=O)nn3)cc2)CC1", "REPORTED_VALUE": 7.96}
{"STRUCTURE_STRING": "O=c1[nH]c2ccccc2cc1-c1cn(-c2ccc(N3CCNCC3)cc2)nn1", "REPORTED_VALUE": 7.57}

GET /values?readout=pIC50&item= O=c1[nH]c2ccccc2cc1-c1cn(-c2ccccc2)nn1
7.49

Requested field: pIC50. Item: COc1ccc(-n2cc(-c3cc4ccccc4[nH]c3=O)nn2)cc1
7.49

What value of pIC50 has been recorded for this entry: CN1CCN(C(=O)c2ccc(-n3cc(-c4cc5ccccc5[nH]c4=O)nn3)cc2)CC1
8.22

I would be grateful if you could share the reported pIC50 for O=C(c1ccc(-n2cc(-c3cc4cc(F)ccc4[nH]c3=O)nn2)cc1)N1CCC2(CC1)COC2 .
6.82

Which value of pIC50 has been reported for CN1CC[C@@H](Oc2ccc(-n3cc(-c4cc5cc(Cl)ccc5[nH]c4=O)nn3)cc2)C1 in the records?
7.47
